The measurements presented in this section are drawn from patent US9024044B2.

Biological target: human trypsin
Assay: Measurement of trypsin inhibitory activity
Settings: substrate Boc-Phe-Ser-Arg-AMC, Tris-HCl pH 8.0, Dixon plot
Where a name gives a salt, the structure may show the parent alone.
PARAMETER: pKi
Would you please state pKi, meaning minus log10 of the concentration in mol/L, as a bare number?

- MOLECULE: "CC[C@H](C)[C@@H](CC(=O)O)NC(=O)C(CC)(CC)Cc1ccc(C(=O)Oc2ccc(C(=N)N)cc2F)s1 [Compound 49, hydrochloride]"
  pKi: 8.71
- MOLECULE: "CC(C)(Cc1ccc(C(=O)Oc2ccc(C(=N)N)cc2F)s1)C(=O)Nc1cccc(C(=O)O)c1"
  pKi: 9.15
- MOLECULE: "CC[C@H](NC(=O)C(CC)(CC)Cc1ccc(C(=O)Oc2ccc(C(=N)N)cc2F)s1)C(=O)O"
  pKi: 8.71
- MOLECULE: "C=CCN(CCS(=O)(=O)O)C(=O)C(C)(C)Cc1ccc(C(=O)Oc2ccc(C(=N)N)cc2F)s1"
  pKi: 8.50
- MOLECULE: "CCC(CC)(Cc1ccc(C(=O)Oc2ccc(C(=N)N)cc2F)s1)C(=O)N[C@@H]1COC(=O)C1"
  pKi: 8.56
- MOLECULE: "CCC(CC)(Cc1ccc(C(=O)Oc2ccc(C(=N)N)cc2F)s1)C(=O)N[C@@H](Cc1ccccc1)C(=O)O"
  pKi: 8.08
- MOLECULE: "CC(C)(Cc1ccc(C(=O)Oc2ccc(C(=N)N)cc2F)s1)C(=O)NC1(C(=O)O)CCC1"
  pKi: 8.83
- MOLECULE: "CC(C)(Cc1ccc(C(=O)Oc2ccc(C(=N)N)cc2F)s1)C(=O)NCc1nnn[nH]1"
  pKi: 9.12

As a next step, examine the molecule that follows.
[Q] Any idea what its pKi is? The molecule is `CC(C)(Cc1ccc(C(=O)Oc2ccc(C(=N)N)cc2F)s1)C(=O)Nc1ccc(C(=O)O)cc1`
[A] 8.54

###

Target: recombinant human enteropeptidase (Homo sapiens (Human), UniProt P98073)
Sequence (P98073 whole entry): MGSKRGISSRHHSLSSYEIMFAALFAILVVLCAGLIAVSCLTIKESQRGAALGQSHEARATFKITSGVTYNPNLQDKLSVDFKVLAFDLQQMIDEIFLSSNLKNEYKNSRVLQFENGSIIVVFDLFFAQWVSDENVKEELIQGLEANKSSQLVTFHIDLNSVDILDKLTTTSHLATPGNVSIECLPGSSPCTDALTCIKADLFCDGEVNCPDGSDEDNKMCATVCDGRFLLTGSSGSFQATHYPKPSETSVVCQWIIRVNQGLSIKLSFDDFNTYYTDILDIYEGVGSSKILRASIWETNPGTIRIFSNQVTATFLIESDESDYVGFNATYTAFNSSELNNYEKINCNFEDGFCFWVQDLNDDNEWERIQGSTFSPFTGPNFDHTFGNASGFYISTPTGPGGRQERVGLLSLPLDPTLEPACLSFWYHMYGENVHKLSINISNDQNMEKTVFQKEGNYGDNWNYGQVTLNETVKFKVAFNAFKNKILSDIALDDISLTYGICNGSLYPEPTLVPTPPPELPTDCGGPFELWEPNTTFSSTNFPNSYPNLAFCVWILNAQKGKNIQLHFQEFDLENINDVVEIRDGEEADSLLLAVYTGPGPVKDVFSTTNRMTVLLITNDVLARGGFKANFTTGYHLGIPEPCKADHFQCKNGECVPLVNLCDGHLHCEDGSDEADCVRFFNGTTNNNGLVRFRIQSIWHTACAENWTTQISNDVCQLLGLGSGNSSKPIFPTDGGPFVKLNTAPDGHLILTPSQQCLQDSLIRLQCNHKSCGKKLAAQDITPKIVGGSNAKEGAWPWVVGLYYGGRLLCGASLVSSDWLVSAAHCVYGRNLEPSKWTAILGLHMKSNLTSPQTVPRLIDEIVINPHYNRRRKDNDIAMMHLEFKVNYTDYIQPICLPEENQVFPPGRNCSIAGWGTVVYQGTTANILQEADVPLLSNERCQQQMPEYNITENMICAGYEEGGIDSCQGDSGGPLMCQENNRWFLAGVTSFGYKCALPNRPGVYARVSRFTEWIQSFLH
Assay: Measurement of enteropeptidase inhibitory activity
Conditions: substrate Gly-Asp-Asp-Asp-Asp-Lys-β-Naphtylamide, Tris-HCl pH 8.0, Dixon plot
Entries and their pKi
// pKi: -log10(molar conc.)

Here is how some compounds turned out for pKi.
- COMPOUND: "CC(C)(Cc1ccc(C(=O)Oc2ccc(C(=N)N)cc2F)s1)C(=O)N[C@H]1CC[C@H](C(=O)O)CC1"
  OBS_VALUE: 8.82
- COMPOUND: "CCC(CC)(Cc1ccc(C(=O)Oc2ccc(C(=N)N)cc2F)s1)C(=O)N1CCC[C@@H]1C(=O)O"
  OBS_VALUE: 9.00
- COMPOUND: "CCC(CC)(Cc1ccc(C(=O)Oc2ccc(C(=N)N)cc2F)s1)C(=O)N[C@H](C(=O)O)C(C)O (stereo partly shown)"
  OBS_VALUE: 9.08

[Q] Return reported pKi; argument: `CCC(CC)(Cc1ccc(C(=O)Oc2ccc(C(=N)N)cc2F)s1)C(=O)Nc1cc(C(=O)O)cc(C(=O)O)c1`
[A] 9.15

###

Biological target: recombinant human enteropeptidase (Homo sapiens (Human))
Experiment: Measurement of enteropeptidase inhibitory activity
Conditions: substrate Gly-Asp-Asp-Asp-Asp-Lys-β-Naphtylamide, Tris-HCl pH 8.0, Dixon plot
Method: Measurement of Enteropeptidase Inhibitory Activity Using a 96 well plate (#3915, Costar), a test compound (25 μL), 400 mM Tris-HCl buffer (pH 8.0, 25 μL) and 0.5 mg/mL fluorescence enzyme substrate (Gly-Asp-Asp-Asp-Asp-Lys-β-Naphtylamide, 25 μL) were mixed, and recombinant human enteropeptidase (R&D Systems, Inc., 25 μL) was added. […] The Ki value was calculated from the concentration of the test compound, reciprocal of reaction rate, and Km value of the enzyme substrate, and by using Dixon plot.
Where a name gives a salt, the structure may show the parent alone.
Collected Ki values appear next to each entry.
I only need the number, in nM, no unit after it.

These recorded examples may help you get a feel for the data.
- COMPOUND: "CCC(CC)(Cc1ccc(C(=O)Oc2ccc(C(=N)N)cc2F)s1)C(=O)N[C@@H](CC(N)=O)C(=O)O"
  ASSAY_TARGET: "recombinant human enteropeptidase (Homo sapiens (Human))"
  Ki (nM): 0.67
- COMPOUND: "CC(C)(Cc1ccc(C(=O)Oc2ccc(C(=N)N)cc2F)s1)C(=O)Nc1ccc(O)c(C(=O)O)c1"
  ASSAY_TARGET: "recombinant human enteropeptidase (Homo sapiens (Human))"
  Ki (nM): 0.53
- COMPOUND: "CCC(CC)(Cc1ccc(C(=O)Oc2ccc(C(=N)N)cc2F)s1)C(=O)N[C@H](C(=O)O)C(C)C"
  ASSAY_TARGET: "recombinant human enteropeptidase (Homo sapiens (Human))"
  Ki (nM): 1.56
- COMPOUND: "CC(C)(Cc1ccc(C(=O)Oc2ccc(C(=N)N)cc2F)s1)C(=O)N[C@@H](C(=O)O)c1ccc(O)cc1"
  ASSAY_TARGET: "recombinant human enteropeptidase (Homo sapiens (Human))"
  Ki (nM): 0.72

[Q] Bench note: what Ki did CC(C)[C@H](NC(=O)C(C)(C)Cc1ccc(C(=O)Oc2ccc(C(=N)N)cc2F)s1)C(=O)O [Compound 9, hydrochloride] show?
[A] 0.79

[Q] Also need `CCC(CC)(Cc1ccc(C(=O)Oc2ccc(C(=N)N)cc2F)s1)C(=O)NCCCC(=O)O` , thanks.
[A] 0.94

[Q] Same thing, different compound: `COc1ccc(NC(=O)C(C)(C)Cc2ccc(C(=O)Oc3ccc(C(=N)N)cc3F)s2)cn1`
[A] 4.13
